Below, each of the molecules is paired with its reported IC50 value.
- assayed.target: Penicillin-binding protein 2x (Streptococcus pneumoniae serotype 4 (strain ATCC BAA-334 / TIGR4))
- Sequence (P14677 whole entry): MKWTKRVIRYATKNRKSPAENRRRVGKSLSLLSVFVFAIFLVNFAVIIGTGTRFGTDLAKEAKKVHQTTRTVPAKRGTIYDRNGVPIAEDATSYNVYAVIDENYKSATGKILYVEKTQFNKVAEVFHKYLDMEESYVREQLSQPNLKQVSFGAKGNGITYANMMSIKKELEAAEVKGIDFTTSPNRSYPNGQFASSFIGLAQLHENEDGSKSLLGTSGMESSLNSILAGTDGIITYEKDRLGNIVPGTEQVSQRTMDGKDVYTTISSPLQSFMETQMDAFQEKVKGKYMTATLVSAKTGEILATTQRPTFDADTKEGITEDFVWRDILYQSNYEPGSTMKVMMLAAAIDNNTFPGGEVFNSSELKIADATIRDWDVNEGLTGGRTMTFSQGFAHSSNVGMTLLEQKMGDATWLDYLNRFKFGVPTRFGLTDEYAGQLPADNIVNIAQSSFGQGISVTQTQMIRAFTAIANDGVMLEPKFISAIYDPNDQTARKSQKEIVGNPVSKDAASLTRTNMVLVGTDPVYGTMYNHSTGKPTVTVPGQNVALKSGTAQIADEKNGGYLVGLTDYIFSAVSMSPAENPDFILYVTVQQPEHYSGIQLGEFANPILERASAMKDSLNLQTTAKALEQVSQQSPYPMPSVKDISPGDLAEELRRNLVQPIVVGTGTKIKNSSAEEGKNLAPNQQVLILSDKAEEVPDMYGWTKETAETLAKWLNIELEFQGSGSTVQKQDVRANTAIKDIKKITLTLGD
- method: Displacement of Biocillin FL from Streptococcus pneumoniae 3009 PBP2X
The answer is to be given in nM; state only the numeric part.

Take a look at these entries with their results.
[
  {
    "molecule": "CC1(C)S[C@@H]2[C@H](NC(=O)Cc3ccccc3)C(=O)N2[C@H]1C(=O)O",
    "unit.text": "nM",
    "IC50": 32.9
  },
  {
    "molecule": "CO/N=C(\\C(=O)N[C@@H]1C(=O)N2C(C(=O)O)=C(COC(N)=O)CS[C@H]12)c1ccco1",
    "unit.text": "nM",
    "IC50": 0.0943
  },
  {
    "molecule": "C[C@@H](O)[C@H]1C(=O)N2C(C(=O)O)=C([C@H]3CCCO3)S[C@H]12",
    "unit.text": "nM",
    "IC50": 214
  },
  {
    "molecule": "CC1(C)S[C@@H]2[C@H](NC(=O)[C@H](N)c3ccc(O)cc3)C(=O)N2[C@H]1C(=O)O",
    "unit.text": "nM",
    "IC50": 21.9
  }
]

Kindly review the next molecule as well.
Input line: Quick one: IC50 for C[C@@H](O)[C@H]1C(=O)N2C(C(=O)O)=C(SCCNC=N)C[C@H]12 [IMIPENEM ANHYDROUS] ?
Output line: 334

###

- assayed.target: Penicillin-binding protein 2B (Streptococcus pneumoniae serotype 4 (strain ATCC BAA-334 / TIGR4), UniProt P0A3M5)
- Sequence (P0A3M5 whole entry): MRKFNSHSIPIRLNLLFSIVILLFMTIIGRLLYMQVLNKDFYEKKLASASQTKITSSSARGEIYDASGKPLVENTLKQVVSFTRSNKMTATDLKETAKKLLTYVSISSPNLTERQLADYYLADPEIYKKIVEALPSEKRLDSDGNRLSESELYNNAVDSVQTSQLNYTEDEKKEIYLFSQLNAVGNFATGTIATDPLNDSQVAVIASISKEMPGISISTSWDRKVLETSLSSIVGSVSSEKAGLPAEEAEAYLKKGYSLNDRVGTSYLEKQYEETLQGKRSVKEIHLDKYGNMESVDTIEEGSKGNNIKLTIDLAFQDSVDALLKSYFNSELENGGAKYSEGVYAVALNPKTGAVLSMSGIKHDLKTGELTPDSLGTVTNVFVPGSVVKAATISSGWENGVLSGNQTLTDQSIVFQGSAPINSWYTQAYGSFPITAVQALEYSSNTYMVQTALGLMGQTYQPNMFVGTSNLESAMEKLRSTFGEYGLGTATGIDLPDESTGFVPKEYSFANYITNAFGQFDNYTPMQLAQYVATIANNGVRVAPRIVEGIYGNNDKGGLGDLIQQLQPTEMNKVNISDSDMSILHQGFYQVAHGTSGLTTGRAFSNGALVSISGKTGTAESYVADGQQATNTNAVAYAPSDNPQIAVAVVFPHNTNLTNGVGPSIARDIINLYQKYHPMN
- method: Displacement of Biocillin FL from Streptococcus pneumoniae 24 PBP2B
Each entry below carries its reported IC50.
Your answer should be a plain number; it is taken to be in nM.

Worked cases, answers included:
[
  {
    "molecule": "C[C@@H](O)[C@H]1C(=O)N2C(C(=O)O)=C(SCCNC=N)C[C@H]12 [IMIPENEM ANHYDROUS]",
    "unit.text": "nM",
    "test.value": 441
  },
  {
    "molecule": "CO/N=C(\\C(=O)N[C@@H]1C(=O)N2C(C(=O)O)=C(COC(N)=O)CS[C@H]12)c1ccco1",
    "unit.text": "nM",
    "test.value": 89.5
  },
  {
    "molecule": "CC1(C)S[C@@H]2[C@H](NC(=O)[C@H](N)c3ccc(O)cc3)C(=O)N2[C@H]1C(=O)O",
    "unit.text": "nM",
    "test.value": 482
  },
  {
    "molecule": "C[C@@H](O)[C@H]1C(=O)N2C(C(=O)O)=C([C@H]3CCCO3)S[C@H]12",
    "unit.text": "nM",
    "test.value": 116
  }
]

Here is another molecule to look at.
Input line: Query (molecule): CC1(C)S[C@@H]2[C@H](NC(=O)Cc3ccccc3)C(=O)N2[C@H]1C(=O)O ; field requested: IC50
Output line: 332
